Listed below: protein stability index values for each entry.
B1: CAMK2D (parent)
chain: IVRLHDSISEEGFHYLVFDLVTGG

# Variants of: B1
# Assay overview: protein stability index of a GFP-peptide fusion (GPS, HEK-293T) (PSI 1-6); higher = more stable;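 further: lentivirally expressed fusions sorted by FACS into six bins by GFP to DsRed ratio, PSI derived from sequencing read proportions per bin multiplied by bin number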
# Applied conditions: c terminus: a fixed tail appended
Assay readout: protein stability index

L16D : 1.63
V21T : 2.88
S9K : 2.84
G12E : 2.48
R3P : 2.28
H14A : 2.32
R3C : 2.03
E11T : 2.08
T22H : 2.24
D19K : 2.88
H5F : 3.15
V2A : 2.29
Y15K : 2.76
L4A : 2.4
G23R : 2.53
F13L : 2.02
F18L : 2.51
I8E : 1.44
F18D : 2.67
G24C : 2.4
V21W : 4.26
V2M : 1.93
D19Y : 3.34
